# Tested on: rat adrenal angiotensin II receptors
# protocol.summary: displacement of radioligand [^125 I]-SIAII specifically bound to rat adrenal angiotensin II receptors
# Assay type: binding
# experimental.context: 1E-5M competing agent, 60 min at 25° C., 10 µM
reported.metric: % displacement of the labeled ligand (%)
Only the number, expressed in %, is required.

CCCc1nc(COC)sc1Cc1ccc(NC(=O)c2ccccc2S(=O)(=O)O)cc1 = 89
CCCc1nc(N)sc1Cc1ccc(NC(=O)c2ccccc2S(=O)(=O)O)cc1 = 85
CCCc1nc(CNC(=O)OCC)sc1Cc1ccc(NC(=O)c2ccccc2S(=O)(=O)O)cc1 = 84

Now consider a different compound.
Data point: `CCCc1nc(N)sc1Cc1ccc(NC(=O)c2c(Cl)ccc(Cl)c2C(=O)O)cc1` ; % displacement of the labeled ligand = 87
